- study conditions: bifidobacterium adolescentis, 12 h, 2 µM
- Description: The drug is tested on Bifidobacterium adolescentis strain: ATCC 15703 for biotransformation. The drug concentrations were measured before and after a 12-h incubation by liquid-chromatography-coupled mass spectrometry (LC–MS)
experimental endpoint: Bacterial Biotransformation

molecule="COc1ccc2c(c1OC)C(=O)O[C@@H]2[C@H]1c2c(cc3c(c2OC)OCO3)CCN1C [NOSCAPINE]" value_observed="Compound NOT metabolized"
molecule="C[C@]12C=CC(=O)C=C1CC[C@@H]1[C@@H]2C(=O)C[C@@]2(C)[C@H]1CC[C@]2(O)C(=O)CO [PREDNISONE]" value_observed="Compound NOT metabolized"
molecule="COc1ccccc1OCC(O)CN1CCN(CC(=O)Nc2c(C)cccc2C)CC1 (centres undefined) [RANOLAZINE]" value_observed="Compound NOT metabolized"

---

- experimental protocol: The drug is tested on Clostridium sporogenes strain: ATCC15579 for biotransformation. The drug concentrations were measured before and after a 12-h incubation by liquid-chromatography-coupled mass spectrometry (LC–MS)
- study conditions: 2 µM
experimental endpoint: Bacterial Biotransformation

compound="COc1ccc(CN2CCNCC2)c(OC)c1OC.Cl.Cl [TRIMETAZIDINE DIHYDROCHLORIDE]" value_observed="Compound NOT metabolized"
compound="CC(CN1c2ccccc2Sc2ccccc21)N(C)C (configuration not stated)" value_observed="Compound NOT metabolized"
compound=Cc1nc2n(c(=O)c1CCN1CCC(c3noc4cc(F)ccc34)CC1)CCCC2 value_observed="Compound metabolized"
compound=Nc1c2c(nc3ccccc13)CCCC2 value_observed="Compound NOT metabolized"
compound=COc1ccc(Cc2nccc3cc(OC)c(OC)cc23)cc1OC value_observed="Compound NOT metabolized"
compound=CN1CCC(OC(c2ccccc2)c2ccccc2)CC1 value_observed="Compound NOT metabolized"
compound=CCOC(=O)[C@H](CCc1ccccc1)N[C@@H](C)C(=O)N1[C@H](C(=O)O)C[C@@H]2CCC[C@@H]21 value_observed="Compound NOT metabolized"
compound="CN1C(=O)CCS(=O)(=O)C1c1ccc(Cl)cc1 (configuration not stated)" value_observed="Compound NOT metabolized"
compound=CNC(=C[N+](=O)[O-])NCCSCc1ccc(CN(C)C)o1 value_observed="Compound NOT metabolized"
compound="CC[C@@H](CO)NC(=O)[C@@H]1C=C2c3cccc4c3c(cn4C)C[C@H]2N(C)C1.O=C(O)/C=C\\C(=O)O [METHYSERGIDE MALEATE]" value_observed="Compound metabolized"
compound=O=c1n(CCCN2CCN(c3cccc(Cl)c3)CC2)nc2ccccn12 value_observed="Compound NOT metabolized"
compound="CCN1CCCC1CNC(=O)c1cc(S(N)(=O)=O)ccc1OC (configuration not stated) [SULPIRIDE]" value_observed="Compound NOT metabolized"
compound="CCOC(=O)[C@H](CCc1ccccc1)N[C@@H](C)C(=O)N1CCC[C@H]1C(=O)O.O=C(O)/C=C\\C(=O)O [ENALAPRIL MALEATE]" value_observed="Compound NOT metabolized"
compound="CC(C)(C(=O)O)c1ccc(C(O)CCCN2CCC(C(O)(c3ccccc3)c3ccccc3)CC2)cc1 (configuration not stated) [FEXOFENADINE]" value_observed="Compound NOT metabolized"
compound="CN1CCC(=C2c3ccccc3CC(=O)c3sccc32)CC1.O=C(O)/C=C/C(=O)O [KETOTIFEN FUMARATE]" value_observed="Compound NOT metabolized"
compound=CC(=O)OCC(=O)[C@@]12N=C(C)O[C@@H]1C[C@H]1[C@@H]3CCC4=CC(=O)C=C[C@]4(C)[C@H]3[C@@H](O)C[C@@]12C value_observed="Compound metabolized"
compound="CC(=O)SCC(Cc1ccccc1)C(=O)NCC(=O)OCc1ccccc1 (configuration not stated)" value_observed="Compound metabolized"

---

- experimental protocol: The drug is tested on Providencia stuartii strain: ATCC25827 for biotransformation. The drug concentrations were measured before and after a 12-h incubation by liquid-chromatography-coupled mass spectrometry (LC–MS)
- study conditions: 2 µM
experimental endpoint: Bacterial Biotransformation

molecule="CN1C[C@H](C(=O)N[C@]2(C)O[C@@]3(O)[C@@H]4CCCN4C(=O)[C@H](Cc4ccccc4)N3C2=O)C=C2c3cccc4[nH]cc(c34)C[C@H]21.CN1C[C@H](C(=O)N[C@]2(C)O[C@@]3(O)[C@@H]4CCCN4C(=O)[C@H](Cc4ccccc4)N3C2=O)C=C2c3cccc4[nH]cc(c34)C[C@H]21.O=C(O)C(O)C(O)C(=O)O [ERGOTAMINE TARTRATE]" value_observed="Compound metabolized"
molecule="CCCN1C[C@H](CSC)C[C@@H]2c3cccc4[nH]cc(c34)C[C@H]21.CS(=O)(=O)O [PERGOLIDE MESYLATE]" value_observed="Compound NOT metabolized"
molecule="C[C@H]1O[C@@H](O[C@H]2[C@@H](O)C[C@H](O[C@H]3[C@@H](O)C[C@H](O[C@H]4CC[C@@]5(C)[C@H](CC[C@@H]6[C@@H]5C[C@@H](O)[C@]5(C)[C@@H](C7=CC(=O)OC7)CC[C@]65O)C4)O[C@@H]3C)O[C@@H]2C)C[C@H](O)[C@@H]1O [DIGOXIN]" value_observed="Compound NOT metabolized"
molecule="O=C(O)CCC(=O)O.O=C(O[C@H]1CN2CCC1CC2)N1CCc2ccccc2[C@@H]1c1ccccc1 [SOLIFENACIN SUCCINATE]" value_observed="Compound NOT metabolized"
molecule="Cc1ccc(NC(=O)c2ccc(CN3CCN(C)CC3)cc2)cc1Nc1nccc(-c2cccnc2)n1 [IMATINIB]" value_observed="Compound NOT metabolized"
molecule="CSc1ccc2c(c1)C(N1CCN(C)CC1)Cc1ccccc1S2.O=C(O)/C=C\\C(=O)O (stereo not drawn)" value_observed="Compound NOT metabolized"
molecule="CO[C@]12C[C@@H](COC(=O)c3cncc(Br)c3)CN(C)[C@@H]1Cc1cn(C)c3cccc2c13 [NICERGOLINE]" value_observed="Compound NOT metabolized"
molecule="CCCCC(=O)O[C@]1(C(=O)CO)[C@@H](C)C[C@H]2[C@@H]3CCC4=CC(=O)C=C[C@]4(C)[C@@]3(F)[C@@H](O)C[C@@]21C [BETAMETHASONE VALERATE]" value_observed="Compound NOT metabolized"
molecule="CC(=O)SCC(Cc1ccccc1)C(=O)NCC(=O)OCc1ccccc1 (stereo not drawn) [RACECADOTRIL]" value_observed="Compound NOT metabolized"
molecule="CC(CN(C)C)CN1c2ccccc2CCc2ccccc21.O=C(O)/C=C\\C(=O)O (stereo not drawn) [TRIMIPRAMINE MALEATE]" value_observed="Compound NOT metabolized"
molecule="CCN1CCCC1CNC(=O)c1cc(S(N)(=O)=O)ccc1OC (stereo not drawn) [SULPIRIDE]" value_observed="Compound NOT metabolized"
molecule=CCCc1nc2c(C)cc(-c3nc4ccccc4n3C)cc2n1Cc1ccc(-c2ccccc2C(=O)O)cc1 value_observed="Compound NOT metabolized"
molecule="CCN(CC)CCOCCOC(=O)C1(c2ccccc2)CCCC1.O=C(O)CC(O)(CC(=O)O)C(=O)O [CARBETAPENTANE CITRATE]" value_observed="Compound metabolized"

---

- experimental protocol: The drug is tested on the gut metagenome community of MV15 with ENA study accession number: PRJEB31790 and ENA sample accession number: SAMEA5537496 for biotransformation. The drug concentrations were measured over 9 timepoints collected between 0 and 24 hours of incubation by liquid-chromatography-coupled mass spectrometry (LC–MS)
- Assay type: ADME
- Set-up: dose 2 uM, timepoint 0, 1, 2, 4, 6, 8, 12, 18, 24 hours
- study conditions: 2 µM
experimental endpoint: Bacterial Biotransformation

molecule=C[C@@H]1C[C@H]2[C@@H]3CCC4=CC(=O)C=C[C@]4(C)[C@@]3(F)[C@@H](O)C[C@]2(C)[C@@]1(O)C(=O)CO value_observed="Compound NOT metabolized"
molecule=CC(=O)OCC(CCn1cnc2cnc(N)nc21)COC(C)=O value_observed="Compound metabolized"
molecule=COc1ccc([C@@H]2Sc3ccccc3N(CCN(C)C)C(=O)[C@@H]2OC(C)=O)cc1 value_observed="Compound NOT metabolized"
molecule="C#C[C@]1(OC(C)=O)CC[C@H]2[C@@H]3CCC4=CC(=O)CC[C@@H]4[C@H]3CC[C@@]21C [NORETHINDRONE ACETATE]" value_observed="Compound metabolized"

---

- experimental protocol: The drug is tested on Ruminococcus lactaris strain: ATCC29176 for biotransformation. The drug concentrations were measured before and after a 12-h incubation by liquid-chromatography-coupled mass spectrometry (LC–MS)
- study conditions: 2 µM
experimental endpoint: Bacterial Biotransformation

compound=CNC(=C[N+](=O)[O-])NCCSCc1ccc(CN(C)C)o1 value_observed="Compound metabolized"
compound="CCOC(=O)C1=C(C)NC(C)=C(C(=O)OC)C1c1cccc([N+](=O)[O-])c1 (centres undefined)" value_observed="Compound metabolized"
compound=CN1CCc2cccc3c2[C@H]1Cc1ccc(O)c(O)c1-3 value_observed="Compound NOT metabolized"
compound="CN1CCN(C2=Nc3ccccc3Oc3ccc(Cl)cc32)CC1.O=C(O)CCC(=O)O [LOXAPINE SUCCINATE]" value_observed="Compound NOT metabolized"
compound="CCN(CC)C(C)CN1c2ccccc2Sc2ccccc21 (centres undefined)" value_observed="Compound NOT metabolized"
compound=C[C@@H]1CC[C@H]2[C@@H](C)C(=O)O[C@@H]3O[C@@]4(C)CC[C@@H]1[C@]32OO4 value_observed="Compound metabolized"
compound="CC(=O)OCC(=O)NCCCOc1cccc(CN2CCCCC2)c1 [ROXATIDINE ACETATE]" value_observed="Compound metabolized"
compound=CCOC(=O)C1=C[C@]2(CC)CCCN3CCc4c(n1c1ccccc41)[C@@H]32 value_observed="Compound NOT metabolized"
compound="COc1cc(C(=O)NCc2ccc(OCCN(C)C)cc2)cc(OC)c1OC [TRIMETHOBENZAMIDE]" value_observed="Compound NOT metabolized"
